# measured target: Drosophila TRPγ (Drosophila melanogaster)
# Sequence (Q9VJJ7 whole entry): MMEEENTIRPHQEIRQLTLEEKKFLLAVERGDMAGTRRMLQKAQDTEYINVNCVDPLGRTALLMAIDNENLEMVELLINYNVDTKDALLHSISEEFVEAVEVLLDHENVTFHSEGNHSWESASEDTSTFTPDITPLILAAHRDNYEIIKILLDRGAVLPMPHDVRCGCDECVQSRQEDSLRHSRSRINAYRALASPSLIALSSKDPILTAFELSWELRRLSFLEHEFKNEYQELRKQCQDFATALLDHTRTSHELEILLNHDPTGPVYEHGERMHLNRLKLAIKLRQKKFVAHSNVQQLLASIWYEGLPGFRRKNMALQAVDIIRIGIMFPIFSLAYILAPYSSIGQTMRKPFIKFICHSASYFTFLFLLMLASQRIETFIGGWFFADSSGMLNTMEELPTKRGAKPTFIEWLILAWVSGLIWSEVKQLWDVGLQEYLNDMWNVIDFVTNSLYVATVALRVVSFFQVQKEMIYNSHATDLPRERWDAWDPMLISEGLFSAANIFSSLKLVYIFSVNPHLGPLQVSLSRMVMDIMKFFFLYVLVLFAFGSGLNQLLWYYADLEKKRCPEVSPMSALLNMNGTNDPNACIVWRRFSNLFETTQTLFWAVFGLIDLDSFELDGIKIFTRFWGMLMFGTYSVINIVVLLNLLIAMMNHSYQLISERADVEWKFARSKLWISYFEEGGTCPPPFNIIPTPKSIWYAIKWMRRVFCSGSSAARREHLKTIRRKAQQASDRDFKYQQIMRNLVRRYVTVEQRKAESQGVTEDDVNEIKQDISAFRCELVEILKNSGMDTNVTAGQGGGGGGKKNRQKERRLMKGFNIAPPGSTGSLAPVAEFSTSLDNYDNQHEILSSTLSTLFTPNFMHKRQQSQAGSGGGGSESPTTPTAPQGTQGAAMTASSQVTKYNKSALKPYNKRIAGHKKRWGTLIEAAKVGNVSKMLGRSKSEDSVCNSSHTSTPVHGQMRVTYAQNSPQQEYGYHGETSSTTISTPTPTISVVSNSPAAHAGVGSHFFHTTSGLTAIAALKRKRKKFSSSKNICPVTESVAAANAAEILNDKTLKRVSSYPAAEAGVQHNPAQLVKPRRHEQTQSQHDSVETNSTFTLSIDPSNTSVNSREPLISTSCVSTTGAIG
# test: FLIPR calcium entry in TRPγ-expressing cells stimulated by eicosatetraynoic acid
# condition details: fluo-4-loaded cells, eicosatetraynoic acid (20 µM), FLIPR Tetra; read-out: IC50 to block Drosophila TRPγ
property: IC50 (µM)
Just the number in µM, nothing appended.

Given the entry NCCCCCCNS(=O)(=O)c1cccc2c(Cl)cccc12 [W-7] , report its measured IC50.
5

* * *

# measured target: TRPM3 (Homo sapiens)
# Sequence (Q9HCF6 whole entry, species assumed): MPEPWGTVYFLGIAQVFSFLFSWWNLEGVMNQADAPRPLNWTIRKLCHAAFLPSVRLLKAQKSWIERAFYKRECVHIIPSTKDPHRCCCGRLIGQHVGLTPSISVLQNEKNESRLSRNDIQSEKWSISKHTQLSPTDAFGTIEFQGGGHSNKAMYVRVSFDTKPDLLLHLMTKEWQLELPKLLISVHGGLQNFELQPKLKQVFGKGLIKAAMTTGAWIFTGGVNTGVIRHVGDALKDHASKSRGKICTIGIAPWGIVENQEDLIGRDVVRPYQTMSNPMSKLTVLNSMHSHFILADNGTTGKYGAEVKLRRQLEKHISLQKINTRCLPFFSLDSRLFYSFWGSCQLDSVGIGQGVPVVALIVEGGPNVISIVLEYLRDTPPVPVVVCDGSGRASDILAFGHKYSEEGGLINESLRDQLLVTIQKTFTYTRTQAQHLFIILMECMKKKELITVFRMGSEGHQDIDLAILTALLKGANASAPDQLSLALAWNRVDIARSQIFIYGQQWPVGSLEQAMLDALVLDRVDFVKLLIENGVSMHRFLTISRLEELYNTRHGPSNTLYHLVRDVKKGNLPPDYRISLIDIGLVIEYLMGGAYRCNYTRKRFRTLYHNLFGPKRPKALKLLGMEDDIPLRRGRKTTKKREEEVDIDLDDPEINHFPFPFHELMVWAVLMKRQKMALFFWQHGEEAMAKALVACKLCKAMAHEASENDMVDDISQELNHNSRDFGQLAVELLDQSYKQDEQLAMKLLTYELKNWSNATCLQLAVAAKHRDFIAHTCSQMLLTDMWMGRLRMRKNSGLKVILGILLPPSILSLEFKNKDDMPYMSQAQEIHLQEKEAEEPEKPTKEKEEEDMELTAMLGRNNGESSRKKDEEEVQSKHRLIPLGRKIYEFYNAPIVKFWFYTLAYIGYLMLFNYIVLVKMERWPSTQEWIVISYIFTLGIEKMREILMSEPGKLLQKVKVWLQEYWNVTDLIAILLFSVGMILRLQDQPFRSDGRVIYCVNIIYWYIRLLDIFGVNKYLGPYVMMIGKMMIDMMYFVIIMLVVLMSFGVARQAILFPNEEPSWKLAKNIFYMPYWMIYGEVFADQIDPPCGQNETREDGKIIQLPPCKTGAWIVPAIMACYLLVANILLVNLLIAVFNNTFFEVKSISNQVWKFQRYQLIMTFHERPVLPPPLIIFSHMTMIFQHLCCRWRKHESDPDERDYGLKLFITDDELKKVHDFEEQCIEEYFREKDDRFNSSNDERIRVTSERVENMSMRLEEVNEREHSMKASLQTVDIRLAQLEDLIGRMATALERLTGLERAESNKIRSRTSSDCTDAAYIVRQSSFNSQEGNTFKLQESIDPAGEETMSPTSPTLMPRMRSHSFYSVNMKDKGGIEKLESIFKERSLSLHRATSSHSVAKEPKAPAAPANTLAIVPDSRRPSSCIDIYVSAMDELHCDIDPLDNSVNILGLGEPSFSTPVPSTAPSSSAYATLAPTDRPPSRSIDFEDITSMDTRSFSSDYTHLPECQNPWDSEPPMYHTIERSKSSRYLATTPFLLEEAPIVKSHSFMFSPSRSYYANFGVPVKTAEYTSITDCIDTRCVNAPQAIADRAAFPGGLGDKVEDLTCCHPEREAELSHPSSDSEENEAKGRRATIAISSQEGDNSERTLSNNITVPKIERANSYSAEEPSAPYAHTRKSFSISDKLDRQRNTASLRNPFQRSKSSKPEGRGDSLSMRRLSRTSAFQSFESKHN
# test: FLIPR calcium entry in TRPM3-expressing cells stimulated by pregnenolone sulphate
# condition details: fluo-4-loaded cells, pregnenolone sulphate (35 µM), FLIPR Tetra; read-out: IC50 to block TRPM3
property: pIC50
Entry type: numeric. Quantity: pIC50, the -log10 of concentration in molar units.

Look at this molecule and give its reported pIC50. NCCCCCCNS(=O)(=O)c1cccc2c(Cl)cccc12 [W-7]
4.82

Values compiled from paper PMC3267170.
